# Tested on: HL-60 cells
# Protocol: HL-60 cell differentiation (nitro blue tetrazolium reduction)
# Type: cell-based, Human
# Condition label: Homo sapiens; HL-60 differentiation into monocytes; FIG. 2
Metric name: pEC50
Lab note: report pEC50 as minus log10 of the concentration in molar units, number only.

Problem: Tell me measured pEC50 for C=C1[C@H](O)CC(=C/C=C2\CCC[C@@]3(C)C2CC[C@@H]3[C@@H](C)CCC[C@@H](C)O)C[C@H]1O (stereo partly shown) please.
Result: 10.00
